testSystem: SARS-CoV-2 full length spike protein (wild type) (SARS-CoV-2, UniProt P0DTC2 14-1208)
Define the label as Met when binding signal, bead assay (fold over isotype) is strictly less than 700 and as Not met in all remaining cases.

# binder, category
measured = [
    ("antibody 266 (antibody, V domains shown) VH: QVQLVESGGGVVQPGRSLRLSCAASGFNLSNYAMHWVRQPSGKGLEWVSLISYDGSIKYYTDSVKGRFTVSGDNSKNTLFLQMNSLRPDDSALYYCVRGGVSGPNSFDMWGQGTTVTVSS VL: DVVMTQSPLSLPVTLGQPASISCRSSQSLVYSDGNTYVNWFQQRPGQSPRRLIYQVSIRASGVPDRFSGSGSGTDFALKISRVEAEDVGVYYCMQGTHWPVTFGQGTKVEIK", "Met"),
    ("antibody 265 (antibody, V domains shown) VH: EVQLVQSGAEVKKPGATVKVSCKFSGDTFSHYYIHWVQQAPGKGLEWMGLVDPQDGESEYAQKFQGKVTITADTSIDTSYLEVTSLRFDDTAFYFCATRGMSGAFDRWGQGTLVTVSS VL: DIVMTQSPDSLAVSLGERATINCKSSQSILSTSNNKNYLAWYQQKPGQPPKLLIYWASTRESGVPDRFSGGGSGTDFTLTISSLQAEDVAVYYCQQYYRTAYTTPIYTFGQGTKLEIK", "Not met"),
    ("antibody 295 (antibody, V domains shown) VH: QVQLQESGPGLVKPSQTLSLTCTVSGGSISSSDYYWSWIRQPPGKGLEWIGYIYYSGSTYYNPSLKSRVTISVDTSKNQFSLKLSSVTAADTAVYYCARVVGYCSSTSCYVDYWGQGTLVTVSS VL: EIVLTQSPATLSLSPGERVTLSCRASQSVSSYLAWYQQKPGQAPRLLIYDASNRATGIPARFSGSGSGTDFTLTISSLEPEDFAVYYCQQRSNWPPGLTFGGGTKVEIK", "Met"),
    ("antibody 290 (antibody, V domains shown) VH: QVHLVQSGAEVKKPGASVKVSCAASGYTFNNYGVSWVRQAPGQGLEWMGWISASNGNTKYAQNLQGRVTMTTDTSTSTAYMELRSLRSDDTAVYYCARDLVGPTAPNYYYGMDVWGQGTAVTVSS VL: QSVLTQPPSVSGAPGQRVTISCTGSSSSIGAGYDVHWYQQLPGTAPKLLIYANSNRPSGVPDRLSGSKSGTSASLAITGLQAEDEADYYCQSYDSSLSGYVFGTGTKVTVL", "Met"),
    ("antibody 301 (antibody, V domains shown) VH: QVQLVQSGAEVKKPGASVKVSCKVSGYTLTELSMHWVRQAPGKGLEWMGGFDPEDGETIYAQKFQGRVTMTEDTSTDTAYMELSSLRSEDTAVYYCATAFCGGDCYPPDALDIWGQGTMVTVSS VL: DIQMTQSPSSVSASVGDRVTITCRASQGISSWLAWYQQKPGKAPKLLIYAASSLQSGVPSRFSGSGSGTDFTLTISSLQPEDFATYYCQQANSFPLTFGGGTKVEIK", "Not met"),
    ("antibody 276 (antibody, V domains shown) VH: QVQLQESGPGLVKPSQTLSLTCTVSGDSISSGGYYWSWIRQHPGKGLEWIGYIYYSGSAYYNPSLKSRVTISLDTSKNQFSLKLSSVTAADTAVYYCARDSVAGFSIFDYWGQGTLVTVSS VL: SSELTQDPAVSVALGQTVRITCQGDSLRSYYASWYQQKPGQAPVRVIYGKNNRPSGIPDRFSGSSSGNTASLTITGAQAEDEADYYCNSWDSSGNHVVFGGGTKLTVL", "Not met"),
    ("antibody 294 (antibody, V domains shown) VH: EVQLVESGGGLVQPGGSLRLSCAASGFTVSSNYMNWVRQAPGKGLEWVSVIYSGGSTYYADSVKGRFTISRDNSKNTLYLQMNSLRAEDTAVYYCARDLGPSGMDVWGQGTTVTVSS VL: DIQMTQSPSSVSASVGDRVTITCRASQGISSWLAWYQQKPGKAPKLLIYAASSLQSGVPSRFSGSGSGTDFTLTISSLQPEDFATYYCQQANSFPLFGGGTKVEIK", "Not met"),
    ("antibody 273 (antibody, V domains shown) VH: QVQLVQSGAEVKKPGASVKVSCKVSGYTLTELSMHWVRQAPGKGLEWMGGFDPEDGETIYAQKFQGRVTMTEDTSTDTAYMELSSLRSEDTAVYYCATAPGYYDSSAPQPINWFDPWGQGTLVTVSS VL: QSALTQPASVSGSPGQSITISCTGTSSDVGSYNLVSWYQQHPGKAPKLMIYEVSKRPSGVSNRFSGSKSGNTASLTISGLQAEDEADYYCCSYAGSSTLVFGGGTKLTVL", "Not met"),
]

## Input Could you please tell me whether binding signal, bead assay (fold over isotype) recorded for antibody 263 (antibody, V domains shown) VH: EVQLVQSGAEVKKPGATVKISCKVSGYTFTDYYMHWVQQAPGKGLEWMGLVDPEDGETIYAEKFQGRVTITADTSTDTAYMELSSLRSDDTAVYYCTTDLAFTIFGGRRGFDPWGQGTLVTVSS VL: DIQLTQSPSFLSASVGDRVTITCRASQGISSYLAWYQQKPGKAPKLLIYAASTLQSGVPSRFSGSGSGTEFTLTISSLQPEDFATYYCQQLNSYDFGQGTRLEIK is less than 700?
## Output Not met

## Input Take the binder antibody 264 (antibody, V domains shown) VH: QVHLVESGGGVVQPGRSLRLSCAASGFTLTSYAMHWVRQAPGKGLEWVALISYDGSVKKYAESVKGRITVSGDNSRNTLHLQINTLRADDTAVYYCVRGGVSGPNSFDLWGQGTMVTVSS VL: DVVMTQSPLSLPVTLGQPASISCRSSQSLEYSDGNTYVNWFQQRPGQSPRRLIYQVSNRASGVPDRFSGSGSGTDFTLQISRVEAEDVGIYYCMQGTHWPVTFGQGTKVEIK and say whether its binding signal, bead assay (fold over isotype) is less than 700.
## Output Met
